Test: JC-1 mitochondrial signal, unstimulated MM1S myeloma – cell-based, JC-1 fluorescence, 24 h, 100 nL compound, profiling panel (AID 1170); also: test concentration not given here
Conditions: MM1S mitochondrial potential, higher = more signal
Returns the class for an entry based on its z-score. Class ranges: low value = under -0.6, medium value = from -0.6 up to 0.3, high value = 0.3 and over

INSERT INTO assay_data (molecule, class_label) VALUES
  ('COCCOC(=O)N1C(=O)[C@@]2(c3ccccc31)[C@H](c1ccc(O)cc1)N1[C@H](c3ccccc3)[C@H](c3ccccc3)OC(=O)[C@H]1[C@@H]2C(=O)N1CCCCCCC1', 'high value'),
  ('COC(=O)[C@@]1(Cc2ccccc2)[C@H]2c3cc(C(=O)N(C)C)n(Cc4ccc(S(C)(=O)=O)cc4)c3C[C@H]2CN1C(=O)c1ccccc1', 'high value'),
  ('CN(C)CCCC[C@@H]1NC(=O)[C@H]2C[C@@H](C(=O)O)[C@@H](c3ccc(O)cc3)N2C1=O', 'high value'),
  ('C[N+](C)(C)CCCC[C@@H]1NC(=O)[C@@H]2C[C@H](C(=O)NCc3ccc(F)cc3)[C@H](c3ccc(O)cc3)N2C1=O', 'medium value'),
  ('CC(C)(C)N1CC=CC23O[C@@H]4C=CCOC(=O)[C@@H]4[C@H]2C(=O)N(CCO)[C@@H]3C1=O (some centres undefined)', 'medium value'),
  ('O=C1[C@H]2C=C(I)[C@H](C[C@@H]2c2ccccc2)[C@@]12CO2', 'low value'),
  ('NC(=O)N1C(=O)C2C(C1=O)C1C=C(CCCO)C2C(c2ccc(CN3CCCC3)cc2)N1Cc1cc2c(cc1Br)OCO2 (centres undefined)', 'high value'),
  ('C=CCNC(=O)[C@H]1[C@@H]2C(=O)O[C@@H](c3ccccc3)[C@@H](c3ccccc3)N2[C@@H](c2ccc(OCCO)cc2)[C@]12C(=O)Nc1ccccc12', 'medium value'),
  ('COC(=O)[C@@]1(Cc2ccc(F)cc2)[C@H]2c3cc(C(=O)N(C)C)n(CCc4ccc(O)c(O)c4)c3C[C@H]2CN1C(=O)c1ccccc1', 'low value'),
  ('O=C1NC(=O)C2C1C=CC(C(O)c1ccc([N+](=O)[O-])cc1)N2Nc1ccccn1 (centres undefined)', 'high value'),
  ('CCOC(=O)C1=CC[C@@H](c2ccc(OC)cc2)N(S(=O)(=O)c2ccc(C)cc2)[C@H]1c1ccc(C)cc1', 'low value'),
  ('C=CCOC(=O)[C@@H]1[C@H]2C(=O)O[C@H](c3ccccc3)[C@H](c3ccccc3)N2[C@H](c2ccc(OCCOC(=O)[C@H]3C[C@H]4C(=O)N5CCC[C@H]5C(=O)N4[C@H]3c3cccc(OCCO)c3)cc2)[C@@]12C(=O)Nc1ccc(I)cc12', 'low value'),
  ('O=C(NCC(O)CO)C1N=C(c2ccc(OCCCO)cc2)N(c2ccccc2)O1 (centres undefined)', 'high value'),
  ('CO[C@H]1O[C@H](CO)[C@@H](OC(=O)Nc2ccccc2-c2ccccc2)[C@H](OC(=O)Nc2ccccc2)[C@H]1OC(=O)Nc1ccccc1', 'medium value');

* * *

Assay: probe aCHRDL2 binding to arrayed compounds – biochemical, biotinylated probe, 635/667 nm fluorescence, primary screen (AID 1100)
Details: small-molecule microarray, higher = more signal
RECORDED ENDPOINT: composite z-score

INSERT INTO results (compound, assay_result) VALUES
  ('CN1C(=O)[C@@H]2[C@@H](CC(COc3ccccc3)=C3[C@@H](CCc4ccccc4)OB(O)C[C@@H]32)C1=O', 0.0414),
  ('COc1ccc([Si](C)(C)[C@H]2[C@H](CC(=O)N3Cc4ccccc4C[C@H]3CO)O[C@@]3(C(=O)N(C)c4ccccc43)[C@@H]2C)cc1', -0.431),
  ('CCCc1cc2c(n1CCc1ccc(Cl)cc1)C(C)C1CN(C(=O)c3ccccc3)C(C)(C(=O)OC)C21 (configuration not stated)', 1.59),
  ('CC(C)NC(=O)[C@@]1(C)c2ccccc2C(=O)N(Cc2ccccc2)[C@H]1c1ccc(CO)cc1', 0.424),
  ('O=C(NCc1ccccc1)[C@@H]1c2ccccc2C(=O)N(Cc2cc(C(F)(F)F)cc(C(F)(F)F)c2)[C@H]1c1ccc(CO)cc1', 0.184),
  ('C=CCC(OC(C)=O)[C@@H]1[C@@H](N(Cc2cc3ccccc3o2)C(=O)Cc2ccc(OC)cc2)c2cc(OCCCO)ccc2N1C(=O)c1ccc2ccccc2n1 (some centres not stated)', 0.393),
  ('COCCCNC(=O)[C@@]1(CCC(=O)OC(C)(C)C)COC(c2ccc(OCCCO)cc2)=N1', 0.523);
